List of Ki values.
# Tgt: GST-Bcl-2 (Homo sapiens (Human), UniProt P10415)
# Sequence (P10415 whole entry): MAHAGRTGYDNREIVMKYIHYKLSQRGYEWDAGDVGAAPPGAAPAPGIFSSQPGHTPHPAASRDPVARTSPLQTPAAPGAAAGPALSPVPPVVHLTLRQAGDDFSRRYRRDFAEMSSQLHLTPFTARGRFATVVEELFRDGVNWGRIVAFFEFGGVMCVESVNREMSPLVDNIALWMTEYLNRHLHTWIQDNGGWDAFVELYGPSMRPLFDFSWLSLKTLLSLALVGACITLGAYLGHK
# Test Name: Time Resolved-Fluorescence Resonance Energy Transfer (TR-FRET) Bcl-2 binding assay
# Measurement Context: GST-Bcl-2 1 nM, F-Bak peptide probe 100 nM, Tb-anti-GST antibody 1 nM; Ki by Wang's equation
The answer is to be given in nM; state only the numeric part.

Consider the worked cases shown below.
| Compound | Unit Symbol | Ki |
| --- | --- | --- |
| CN1CCC(Nc2ccc(S(=O)(=O)NC(=O)c3ccc(N4CCN(CC5=C(c6ccc(Cl)cc6)CC(C)(C)CC5)CC4)cc3Oc3cccc(C(F)(F)F)c3)cc2[N+](=O)[O-])CC1 | nM | 0.147 |
| CC1(C)CCC(CN2CCN(c3ccc(C(=O)NS(=O)(=O)c4cnc(OCC5COCCO5)c(C#N)c4)c(Oc4cc5cc[nH]c5cc4F)c3)CC2)=C(c2ccc(Cl)cc2)C1 (stereo not shown) | nM | 0.146 |
| CC1(C)CCC(CN2CCN(c3ccc(C(=O)NS(=O)(=O)c4ccc(NCC5CCOCC5)c([N+](=O)[O-])c4)c(Oc4cncc(Br)c4)c3)CC2)=C(c2ccc(Cl)cc2)C1 | nM | 0.936 |

Attention now turns to another entry.
Which Ki value belongs to CC1(C)CCC(CN2CCN(c3ccc(C(=O)NS(=O)(=O)c4ccc(NC5CCN(C6CCOCC6)CC5)c([N+](=O)[O-])c4)c(Oc4ccc5[nH]cc(Cl)c5c4)c3)CC2)=C(c2ccc(Cl)cc2)C1 ?
0.111

---

List of pKi values.
# Tgt: GST-Bcl-2 (Homo sapiens (Human), UniProt P10415)
# Test Name: Time Resolved-Fluorescence Resonance Energy Transfer (TR-FRET) Bcl-2 binding assay
# Measurement Context: GST-Bcl-2 1 nM, F-Bak peptide probe 100 nM, Tb-anti-GST antibody 1 nM; Ki by Wang's equation
pKi: −log10 of the molar value.

| Compound | pKi |
| --- | --- |
| Cn1c(=O)[nH]c2cccc(Oc3cc(N4CCN(CC5=C(c6ccc(Cl)cc6)CC(C)(C)CC5)CC4)ccc3C(=O)NS(=O)(=O)c3ccc(NCC4CCOCC4)c([N+](=O)[O-])c3)c21 | > 11.00 |
| O=C(NS(=O)(=O)c1ccc(NCCCN2CCOCC2)c([N+](=O)[O-])c1)c1ccc(N2CCN(Cc3ccccc3-c3ccc(Cl)cc3)CC2)cc1Oc1ccc(OCc2ccccc2)cc1 | < 5.92 |

Attention now turns to another entry.
Which pKi value belongs to CC1(C)CCC(CN2CCN(c3ccc(C(=O)NS(=O)(=O)c4ccc(NCC5CCOC5)c([N+](=O)[O-])c4)c(Oc4cnc(N)c(Cl)c4)c3)CC2)=C(c2ccc(Cl)cc2)C1 (stereo not drawn) ?
> 11.00

Reference for the values: patent US8952157B2
